test.protocol: in vitro
condition.context: PAMPA, PAMPA-BBB Pe(10^-6 cm/sec), Table S3: compounds exhibiting low PAMPA-BBB permeability
Counter-ions that a name gives are not always drawn.
outcome.measure: Papp

compound	value.reported
O=c1c(O)c(-c2ccccc2O)oc2cc(O)cc(O)c12	2.2 ×10⁻⁶ cm/s
O=c1ccn([C@H]2C[C@H](O)[C@@H](CO)O2)c(=O)[nH]1	< 1 ×10⁻⁶ cm/s
CC(=O)OCC1=C(C(=O)O)N2C(=O)C(N)C2SC1 (stereo not drawn)	< 1 ×10⁻⁶ cm/s
CC1CC(C)C(=O)C1=O (stereo not drawn)	2.7 ×10⁻⁶ cm/s
COC1=C(OC)C(=O)c2ccccc2C1=O	4.7 ×10⁻⁶ cm/s
COc1cc2c(c(OC)c1OC)-c1ccc(O)c(=O)cc1[C@@H](N)CC2	8.2 ×10⁻⁶ cm/s
Oc1ccc(-c2[o+]c3cc(O)cc(O)c3cc2O)cc1	< 1 ×10⁻⁶ cm/s
Oc1ccc2c(c1)OC[C@]1(O)Cc3cc(O)c(O)cc3[C@H]21	1.9 ×10⁻⁶ cm/s
N[C@@H](Cc1cc(I)c(O)c(I)c1)C(=O)O	< 1 ×10⁻⁶ cm/s
COc1cc2c(CCNC(C)=O)c[nH]c2cc1O [6-HYDROXYMELATONIN]	2.8 ×10⁻⁶ cm/s
CCCCC/C=C\C=C\C(=O)OCC [ETHYL TRANS-2,CIS-4-DECADIENOATE]	< 1 ×10⁻⁶ cm/s
N[C@@H](Cc1c[nH]c2ccc(O)cc12)C(=O)O	< 1 ×10⁻⁶ cm/s
CC/C=C\C/C=C\C/C=C\C/C=C\C/C=C\CCCC(=O)OCC	< 1 ×10⁻⁶ cm/s
CC[C@H]1O[C@]2(CC[C@@H]1C)C[C@@H]1C[C@@H](CC=C(C)C[C@@H](C)C=CC=C3CO[C@@H]4[C@H](O)C(C)=C[C@@H](C(=O)O1)[C@]34O)O2	9.9 ×10⁻⁶ cm/s
O=C(O)CCCc1c[nH]c2ccccc12 [IND[…]]	< 1 ×10⁻⁶ cm/s
C[C@@H]1O[C@@H](OC[C@H]2O[C@@H](Oc3c(-c4ccc(O)c(O)c4)oc4cc(O)cc(O)c4c3=O)[C@H](O)[C@@H](O)[C@@H]2O)[C@H](O)[C@H](O)[C@H]1O	< 1 ×10⁻⁶ cm/s
CCCCc1ccc(C(=O)O)nc1	< 1 ×10⁻⁶ cm/s
CC(C)=CCC/C(C)=C/C=C/C(C)=C/C=C/C(C)=C/C=C/C=C(C)/C=C/C=C(C)/C=C/C=C(\C)CCC=C(C)C	< 1 ×10⁻⁶ cm/s
N[C@H](C(=O)O)c1cc(O)cc(O)c1 [DIHYDROXYPHENYLGLYCINE]	< 1 ×10⁻⁶ cm/s
O=C(O)c1cccc(O)c1O [PYR[…]]	< 1 ×10⁻⁶ cm/s
COc1cc(C(O)CN)ccc1O (stereo not drawn) [NORMETADRENALINE HYDROCHLORIDE]	< 1 ×10⁻⁶ cm/s
O=C1O/C(=C\c2ccc(O)cc2)C(O)=C1c1ccc(O)cc1 [[…] B1]	< 1 ×10⁻⁶ cm/s
CC1=C(/C=C/C(C)=C/C=C/C(C)=C/C=C/C=C(C)/C=C/C=C(\C)C=O)C(C)(C)CCC1	< 1 ×10⁻⁶ cm/s
CC(C=O)Cc1ccc(C(C)C)cc1 (stereo not drawn)	8.2 ×10⁻⁶ cm/s
CC1=C(O)C(=O)OC1C (stereo not drawn)	< 1 ×10⁻⁶ cm/s
CC(=O)Nc1ccccc1O	< 1 ×10⁻⁶ cm/s
O=C(O)c1ccc(O)c(O)c1 [PROT[…]]	< 1 ×10⁻⁶ cm/s
O=C(CCc1ccc(O)cc1)c1c(O)cc(O)cc1O	2.2 ×10⁻⁶ cm/s
O=c1ccn([C@@H]2O[C@H](COP(=O)(O)OP(=O)(O)O)[C@@H](O)[C@H]2O)c(=O)[nH]1 [Uridine diphosphate disodium]	< 1 ×10⁻⁶ cm/s
CNCCc1ccc(O)c(O)c1 [DEOXYEPINEPHRINE HYDROCHLORIDE]	< 1 ×10⁻⁶ cm/s
O=C(O)[C@H]1O[C@@H](Oc2c(-c3ccc(O)c(O)c3)oc3cc(O)cc(O)c3c2=O)[C@H](O)[C@@H](O)[C@@H]1O	4.2 ×10⁻⁶ cm/s
CC=C1C[N+]2(C)CC[C@@]34C(=C(C=O)[C@H]1C[C@@H]32)Nc1ccccc14 (stereo partly drawn)	< 1 ×10⁻⁶ cm/s
NC(Cc1cc(O)c(O)cc1O)C(=O)O (racemic) [2,4,5-TRIHYDROXY-DL-PHENYLALANINE]	9.3 ×10⁻⁶ cm/s
Nc1ccn([C@@H]2O[C@H](CO)[C@@H](OP(=O)(O)O)[C@H]2O)c(=O)n1	< 1 ×10⁻⁶ cm/s
NC(=O)c1ncn([C@@H]2O[C@H](CO)[C@@H](O)[C@H]2O)c1N	< 1 ×10⁻⁶ cm/s
O=c1[nH]c(=O)c2ncn([C@@H]3O[C@H](CO)[C@@H](O)[C@H]3O)c2[nH]1	< 1 ×10⁻⁶ cm/s

* * *

test.protocol: in vitro
condition.context: PAMPA, PAMPA-BBB Pe, Table S2: compounds exhibiting moderate to high PAMPA-BBB permeability

molecule	Papp
Cc1ccc2c(c1)C(=O)c1ccccc1C2=O	26 ×10⁻⁶ cm/s
COC1=CC(=O)O[C@@H](/C=C/c2ccc3c(c2)OCO3)C1	104 ×10⁻⁶ cm/s
C=C[C@H]1CN2CCc3c([nH]c4ccccc34)[C@H]2C[C@@H]1/C(=C\OC)C(=O)OC	118 ×10⁻⁶ cm/s
COc1cccc(C=O)c1OC	107 ×10⁻⁶ cm/s
CC1=C(O)C(=O)CO1	47 ×10⁻⁶ cm/s
COc1ccc(-c2coc3cc(O)ccc3c2=O)cc1	97 ×10⁻⁶ cm/s
COc1cc2c(cc1O)C[C@H]1c3c(cc(OC)c(O)c3-2)CCN1C	35 ×10⁻⁶ cm/s
C=C(C)[C@@]12OC3(c4ccccc4)O[C@@H]1[C@@H]1[C@@H]4O[C@]4(CO)[C@@H](O)[C@]4(O)C(=O)C(C)=C[C@H]4[C@@]1(O3)[C@H](C)[C@H]2OC(=O)/C=C/C=C/c1ccccc1	16 ×10⁻⁶ cm/s
O=C(/C=C/c1ccc(O)cc1)c1ccc(O)cc1O [TRIHYDROXYCHALCONE]	169 ×10⁻⁶ cm/s
COc1ccc(-c2cc(=O)c3c(OC)c(OC)c(OC)cc3o2)cc1OC	36 ×10⁻⁶ cm/s
c1ccc2cnccc2c1	157 ×10⁻⁶ cm/s
CCCOc1ccc2[nH]cc(C3=CCNCC3)c2n1	18 ×10⁻⁶ cm/s
CCCCCCCCC(=O)NCc1ccc(O)c(OC)c1 [NONIVAMIDE]	125 ×10⁻⁶ cm/s
C[C@]12CCC(=O)C=C1CC[C@@H]1[C@@H]2C(=O)C[C@]2(C)C(=O)CC[C@@H]12	41 ×10⁻⁶ cm/s
COc1cc(CCC(C)=O)ccc1O	23 ×10⁻⁶ cm/s
O=c1c(-c2ccc(O)cc2)coc2cc(O[C@@H]3O[C@H](CO)[C@@H](O)[C@H](O)[C@H]3O)cc(O)c12	29 ×10⁻⁶ cm/s
CC(C)=CCOc1c2occc2cc2ccc(=O)oc12	195 ×10⁻⁶ cm/s
COc1cc(-c2cc(=O)c3c(O)cc(O)cc3o2)ccc1O	179 ×10⁻⁶ cm/s
COc1cccc(OC)c1C(=O)O	24 ×10⁻⁶ cm/s

* * *

Tested on: GFP-labeled iPSC-derived human cortical glutamatergic neurons
test.protocol: cells
Format: cell-based
condition.context: Homo sapiens, Neuron; rounded values; read-out: AC50 (neurite outgrowth inhibition)
Measured AC50, listed per entry for reference.
outcome.measure: AC50 (nM)

compound	value.reported
CC1=CC(=O)c2c(O)cccc2C1=O	900
COc1ccc(-c2cc(=O)c3ccccc3o2)cc1OC	700
COc1ccc2c(c1OC)C(=O)O[C@@H]2[C@H]1c2c(cc3c(c2OC)OCO3)CCN1C [Noscapine, reference compound]	1100
CC(/C=C/C(=O)NO)=C\[C@@H](C)C(=O)c1ccc(N(C)C)cc1	1700

* * *

test.protocol: in vitro
condition.context: PAMPA, PAMPA-BBB Pe, Table S1; 60 min, room temperature, 0.05 mM
Structures can show the parent of a compound that is named as a salt.

compound	reading.qualifier	Papp [×10⁻⁶ cm/s]
O=c1oc2c(O)c(O)cc3c(=O)oc4c(O)c(O)cc1c4c23	=	120
CC1(C)C=Cc2c(ccc(C(=O)/C=C/c3ccccc3)c2O)O1	=	10.2
CC1=CC(=O)c2c(O)cccc2C1=O	=	68.8
C=C[C@@H](C1=CC(=O)C(OC)=C(OC)C1=O)c1ccccc1	=	69.8
CC(=O)c1c(O)cccc1O	=	44.7
COc1cc2c(c(OC)c1OC)-c1c(cc(OC)c(OC)c1OC)C[C@H](C)[C@H](C)C2	=	171
CC1=C[C@H](O)CC(C)(C)[C@H]1/C=C/C(C)=C/C=C/C(C)=C/C=C/C=C(C)/C=C/C=C(C)/C=C/C1=C(C)C[C@@H](O)CC1(C)C	=	28
CN[C@@H]1C[C@H]2O[C@@](C)([C@@H]1OC)n1c3ccccc3c3c4c(c5c6ccccc6n2c5c31)C(=O)N[C@H]4O [7-hydroxystaurosporine (UCN-01), 7-hydroxystaurosporine]	=	158
Oc1ccc(C2=Cc3ccc(O)cc3OC2)cc1	=	145
CN1[C@@H](CC(=O)c2ccccc2)CCC[C@H]1C[C@H](O)c1ccccc1 [Lobeline hydrochloride]	=	31.8
CC1=C(O)C(=O)C=C2C1=CC=C1[C@@]2(C)CC[C@@]2(C)[C@@H]3C[C@](C)(C(=O)O)CC[C@]3(C)CC[C@]12C	=	143
COc1cc(C2c3cc4c(c(O)c3CC3COC(=O)C32)OCO4)cc(OC)c1O (stereo not shown)	=	14.2
CO[C@@H]1[C@@H](O[C@@H]2O[C@H](C)[C@@H](O[C@H]3C[C@@](C)(O)[C@@H](OC(=O)CC(C)C)[C@H](C)O3)[C@H](N(C)C)[C@H]2O)[C@@H](CC=O)C[C@@H](C)C(=O)/C=C/[C@@H]2O[C@H]2C[C@@H](C)OC(=O)C[C@H]1OC(C)=O	=	31.9
CC(C)=CCOc1c2occc2cc2ccc(=O)oc12	=	160
O=C1NC(=O)C(c2c[nH]c3ccccc23)=C1c1c[nH]c2ccccc12 [Bisindolylmaleimide IV]	>	654
OCC=Cc1ccccc1	=	97.5
C/C(=C\c1csc(C)n1)[C@@H]1C[C@@H]2O[C@]2(C)CCC[C@H](C)[C@H](O)[C@@H](C)C(=O)C(C)(C)[C@@H](O)CC(=O)O1	=	10.5
S=c1ccss1	=	97.8
CC[C@H](C)[C@H]1O[C@]2(C=C[C@@H]1C)C[C@@H]1C[C@@H](C/C=C(\C)[C@@H](O[C@H]3C[C@H](OC)[C@@H](O[C@H]4C[C@H](OC)[C@@H](O)[C@H](C)O4)[C@H](C)O3)[C@@H](C)/C=C/C=C3\CO[C@@H]4[C@H](O)C(C)=C[C@@H](C(=O)O1)[C@]34O)O2	=	35
CCCC[C@@H](C)/C=C(C)/C=C(\C)C(=O)NC1=C[C@@](O)(/C=C/C=C/C=C/C(=O)NC2=C(O)CCC2=O)[C@@H]2O[C@@H]2C1=O	=	64
COc1cc2c(OC(C)=O)c3c(c(-c4ccc5c(c4)OCO5)c2cc1OC)C(=O)OC3	=	349
C[C@H]1COC2=C1C(=O)C(=O)c1c2ccc2c1CCCC2(C)C	=	12
O=c1cc(-c2ccc(O)cc2)oc2cc(O)cc(O)c12	=	36.2
COc1cc2c(O)c3c(c(-c4ccc5c(c4)OCO5)c2cc1OC)C(=O)OC3	=	187
CN1CCC2=C[C@@H](O)[C@@H]3OC(=O)c4cc5c(cc4[C@H]3C21)OCO5 (stereo partly shown)	=	22.3
COc1ccc(-c2cc(=O)c3ccccc3o2)cc1OC	=	249
O=c1c(-c2ccc(O)cc2)coc2cc(O)cc(O)c12	=	35.4
C/C=C(\C)C(=O)N[C@@H](c1ccccc1)[C@@H](O)C(=O)O[C@H]1C[C@@]2(O)[C@@H](OC(=O)c3ccccc3)[C@@H]3[C@]4(OC(C)=O)CO[C@@H]4C[C@H](O)[C@@]3(C)C(=O)[C@H](OC(C)=O)C(=C1C)C2(C)C	=	78.6
